Please provide measured Periostin (pg/mL), MRCS cells + IL-13 5 ng/mL; antibody at 0.0002 nM for the entries that follow.
biological target: his-labeled human IL-13 (immunogen A) (human) (UniProt P35225); assay: cell-based or functional assay
Numbers only, in pg/mL.

Record excerpt, results attached:
The reported value for c35E2C3 (mouse-human chimeric IL-13 antibody) (antibody, V domains shown) VH: EVQLQESGPGLAKPSQTLSLTCSVTGYSITSDYWNWIRKFPGNKLEYMGYISYNGNTYYNPSLKSQISITRDTSKNQLYLQLKSATTEDTATYYCARLAKWTWYFDIWGTGTTVTVSS VL: DIQMNQSPSSLSASLGDTITITCHASQNINVWLSWYQQKPGSLPKLLIYKASDLHTGVPSRFSGSGSGTGFTLTISSLQPEDIATYYCQQGQSYPYTFGGGTKLEIK in terms of Periostin (pg/mL), MRCS cells + IL-13 5 ng/mL; antibody at 0.0002 nM is 7100

The reported value for c29D9H8 (mouse-human chimeric IL-13 antibody) (antibody, V domains shown) VH: QVQLQQSGAELVRPGASVTLSCKASGYTFTDYEMHWVKQTPVHGLEWIGGIDPETGGTASNQKFKGKAILTADKSSSTAYMELRSLTSEDSAVYYCTSGDYFGGGPFAYWGQGTLVTVSA VL: DIKMTQSPSSMYASLGERVTITCKASQDINSYLSWFQQKPGKSPKTLIYRANRLVDGVPSRFSGSGSGQDYSLTISSLDYEDMGIYYCLQYDEFPYTFGGGTKLEIK in terms of Periostin (pg/mL), MRCS cells + IL-13 5 ng/mL; antibody at 0.0002 nM is 6190

The reported value for c28A2E11 (mouse-human chimeric IL-13 antibody) (antibody, V domains shown) VH: EVQLQQSGAELVKPGASVKLSCTASGFNIKDYYMHWVKQRTEQGLEWIGRIDPEDGETKYAPKFHDKATLTADTSSNTAYLQFSSLASEDTAVYYCTRYDYYGPFAYWGQGTLVTVSA VL: QAVVTQESVLTTSPGETVTLTCRSSTGAVTTSNYANWVQEKPDHLFTGLIGGTNNRAPGVPARFSGSLIGDKAALTITGAQTEDEAIYFCALWYINHFIFGSGTKVTVL in terms of Periostin (pg/mL), MRCS cells + IL-13 5 ng/mL; antibody at 0.0002 nM is 7090

Please examine the following record next.
The reported value for c70F10A10 (mouse-human chimeric IL-13 antibody) (antibody, V domains shown) VH: QIQLQQSGAELARPGASVKLSCKASGYTFTSYGISWVKQRDGQGLEWIGEIYPRSGNTDYNEKFKGKATLTADKSSSTAYMELRSLTSEDSAVYFCSSFTTLVPTDYFDYWGQGTTLTVSS VL: DIMMSQSPSSLAVSVGEKVSMTCKSSQSLLYSSNQKNYLAWYQQKPGQSPKMLIYWASTRETGVPDRFTGSGSGTDFTLTISSVMAEDLAVYYCHQYFTYPRTFGDGTKLEVK in terms of Periostin (pg/mL), MRCS cells + IL-13 5 ng/mL; antibody at 0.0002 nM is 6960

All figures here come from patent US20190309059A1.
